meta.source: ChEMBL document CHEMBL3433997

# target.desc: Glucose transporter (Leishmania mexicana) (UniProt O61059)
# method.summary: ST_JUDE_LEISH: Cytotoxicity at 2uM final concentration against transgenic Leishmania Mexicana promastigotes LmGT2 that are glucose transport deficient and complemented with the L. Mexicana glucose transporter 2. Activity is measured by DNA content using SYBR green in vitro
# Format: functional
observation.type: inhibition (%)
Please give a number only; it is taken to be in %.

inhibition lookup needed for "CCCCCCn1c2c(c(=N)c3c1CCC3)CCCC2" , thanks.
66.2

Entry "CN(c1ncc(-c2cccc(CNCc3ccccc3O)c2)cn1)C1CCCCC1" please
0.12

What would you report for Cc1cccc2nc(-c3ccc(-c4ccc(CNCC5CCCO5)cc4)cc3)[nH]c12 (stereo not given) ?
6.42

And then "COc1ccc2ncc(F)c(CCN3CC[C@H](NCc4cc(C#N)c5c(c4)OCCO5)[C@H](O)C3)c2c1" , what is it?
70.8

Next up: "O=C(Nc1ccc(N2CCN(Cc3ccccc3)CC2)cc1)c1cccs1"
-1.68

Moving on to the next compound: "O=C(NCC1CCCCC1)c1cc(=O)c2ccccc2o1"
11.7

Now this one: COC(=O)Cn1c(C2CCN(CC3CCC(NC(=O)/C=C/c4ccc(Cl)c(Cl)c4)CC3)CC2)nc2ccccc21 (stereo not given)
2.43
